src = PubChem BioAssay AID1159580

procedureText: chemical genetic growth profiling, strain panel (AID 1159580);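 note: tested at 20 µM; growth read once vehicle control cultures reached saturation at 30 °C; 1 = growth at the plate median or of vehicle wells; lower values mean less growth of the strain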
measurementParameters: S. cerevisiae deletion strains, growth OD, locus YPL031C, strain PHO85, hits give low values
Screen size: about 5,500 compounds; about 2,000 (36%) were called active. Inconclusive results (about 18%) are left out. This is one part of the list.
Param label: returns label 1 when normalized growth < 0.9, returns label 0 otherwise, including exact equality.

compound=N/C(CCSc1ccc(Cl)cc1)=N/OC(=O)Nc1ccc(Cl)cc1 answerlabel="label 1"
compound=CC1(C)CC(=O)C=C(Sc2nc3ccccc3o2)C1 answerlabel="label 0"
compound=O=C(Oc1cccc2[nH]ccc12)c1ccc(C(F)(F)F)cc1 answerlabel="label 1"
compound=O=[N+]([O-])c1ccc(ON=C2CCCCC2)c([N+](=O)[O-])c1 answerlabel="label 1"
compound="CC(C)(C)c1ccc(C(=N)SC(C(=O)C(F)(F)F)c2ccccc2)cc1 (stereo not given)" answerlabel="label 1"
compound=Cc1ccc(S(=O)(=O)NC(=O)Nc2ccc(Sc3ccccc3)nc2Sc2ccccc2)cc1 answerlabel="label 0"
compound=Cc1nn(C)c(C(=O)Sc2ccc(OC(F)(F)F)cc2)c1[N+](=O)[O-] answerlabel="label 0"
compound=O=C(ON=C1CCCCC1)c1ccc([N+](=O)[O-])cc1 answerlabel="label 1"
compound=Cc1cc(C)cc(Sc2ccc3nnc(-c4ccccc4)n3n2)c1 answerlabel="label 0"
compound=N#C/C(=N/Nc1ccc(F)cc1)C(=O)c1ccccc1 answerlabel="label 1"
compound=O=C(c1csc(-c2ccc(Cl)cc2)c1)N1CCCCC1 answerlabel="label 1"
compound=CC(=O)/C(C#N)=N\Nc1ccc(F)cc1 answerlabel="label 1"
compound="CCOC(=O)C1C(c2c(F)cccc2Cl)C(C(=O)OCC)C(O)(C(F)(F)F)NC1(O)C(F)(F)F (stereo not given)" answerlabel="label 0"

---

procedureText: chemical genetic growth profiling, strain panel (AID 1159580)
measurementParameters: S. cerevisiae deletion strains, growth OD, locus YPL204W, strain HRR25, hits give low values
Screen size: about 5,500 compounds; about 2,000 (36%) were called active. Not shown: some 18% with an inconclusive outcome. Some of the results follow.
Each entry below carries its recorded normalized growth.
attributeMeasured: normalized growth

molecule=Oc1c(Cl)cc(Cl)cc1C=Nc1nc(-c2ccc3ccccc3c2)cs1 attributemeasured="normalized growth" reportedresult=0.766
molecule=O=[N+]([O-])c1ccc(ON=C2CCCCC2)c([N+](=O)[O-])c1 attributemeasured="normalized growth" reportedresult=0.74
molecule=O=C(/C=C/c1ccc2c(c1)OCO2)Nc1ccc(Br)cc1 attributemeasured="normalized growth" reportedresult=0.95
molecule=O=[N+]([O-])c1ccc(-c2noc(-c3ccno3)n2)o1 attributemeasured="normalized growth" reportedresult=0.106
molecule=CCCN(CCC)C(=S)NC(=O)c1cccc([N+](=O)[O-])c1 attributemeasured="normalized growth" reportedresult=0.915
molecule=CC(=O)c1ccc(Cl)c(NS(=O)(=O)c2cc(Cl)c(Cl)cc2Cl)c1 attributemeasured="normalized growth" reportedresult=0.763
molecule=O=C(Oc1cccc2[nH]ccc12)c1ccc(C(F)(F)F)cc1 attributemeasured="normalized growth" reportedresult=0.778
molecule=N/C(CCSc1ccc(Cl)cc1)=N/OC(=O)Nc1ccc(Cl)cc1 attributemeasured="normalized growth" reportedresult=0.105
molecule=N/C(Cn1ccc(C(F)(F)F)n1)=N/OS(=O)(=O)c1cccc(Cl)c1Cl attributemeasured="normalized growth" reportedresult=0.989
molecule="CCOC(=O)C1C(c2c(F)cccc2Cl)C(C(=O)OCC)C(O)(C(F)(F)F)NC1(O)C(F)(F)F (stereo not given)" attributemeasured="normalized growth" reportedresult=0.984

---

procedureText: chemical genetic growth profiling, strain panel (AID 1159580)
measurementParameters: S. cerevisiae deletion strains, growth OD, locus YNL271C, strain bni1
About 2,000 (36%) of roughly 5,500 compounds were called active. Inconclusive results (about 18%) are left out. Rule as the data show it: active = normalized growth mostly below about 0.91 (no sharp cut-off); inconclusive = no clear call, values can overlap the other calls; inactive = mostly above about 0.92. The list shows a part of the results.
Classes used: active, inactive

linenotation=O=C1c2ccc(O)cc2O[C@H](c2cc(O)c(O)c(O)c2)[C@H]1O answerlabel=inactive
linenotation=CCCCC[C@H]1C(=O)O[C@H](C)[C@H](NC(=O)c2cccc(NC=O)c2O)C(=O)O[C@@H](C)[C@@H]1OC(=O)CC(C)C answerlabel=active
linenotation=Oc1ccc2c(c1)O[C@H](c1ccc(O)c(O)c1)[C@@H](O)C2 answerlabel=inactive
linenotation=Oc1cc(O)c2c(c1)O[C@H](c1ccc(O)c(O)c1)[C@H](O)C2 answerlabel=inactive
linenotation=Oc1cc(O)c2c(c1)O[C@H](c1cc(O)c(O)c(O)c1)[C@H](O)C2 answerlabel=inactive

---

procedureText: chemical genetic growth profiling, strain panel (AID 1159580);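 note: tested at 20 µM; growth read once vehicle control cultures reached saturation at 30 °C; 1 = growth at the plate median or of vehicle wells; lower values mean less growth of the strain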
measurementParameters: S. cerevisiae deletion strains, growth OD, locus YJL187C, strain SWE1 (second series), hits give low values
The whole screen tested about 5,500 compounds, of which about 2,000 (36%) were called active. Roughly 18% stayed inconclusive and do not appear here. Some of the results follow.
Collected normalized growth values appear next to each entry.
attributeMeasured: normalized growth

linenotation=Clc1ccc(C(c2ccc(Cl)cc2)C(Cl)(Cl)Cl)cc1 reportedresult=1.02
linenotation=CC1(C)S[C@@H]2[C@H](NC(=O)[C@H](N)c3ccccc3)C(=O)N2[C@H]1C(=O)O reportedresult=1
linenotation=COc1ccc(C(c2ccc(OC)cc2)C(Cl)(Cl)Cl)cc1 reportedresult=0.997
linenotation=COc1ccc(-c2coc3cc(O)ccc3c2=O)c(OC)c1 reportedresult=0.998
linenotation=COc1ccc(-c2coc3cc(OC)ccc3c2=O)cc1 reportedresult=0.891
linenotation=COc1ccc(-c2coc3cc(O)ccc3c2=O)cc1 reportedresult=0.879

---

procedureText: chemical genetic growth profiling, strain panel (AID 1159580);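 note: tested at 20 µM; growth read once vehicle control cultures reached saturation at 30 °C; 1 = growth at the plate median or of vehicle wells; lower values mean less growth of the strain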
measurementParameters: S. cerevisiae deletion strains, growth OD, locus YJL095W, strain BCK1 (second series)
Screen size: about 5,500 compounds; about 2,000 (36%) were called active. Not shown: some 18% with an inconclusive outcome. No stated cut-off is given here; in the data, active means normalized growth mostly below about 0.91 (no sharp cut-off); inconclusive means no clear call, values can overlap the other calls; inactive means mostly above about 0.92. The list shows a part of the results.
Outcome codes: yes for active, no for inactive

molecule=O=C(NC(=O)c1ccccc1Cl)Nc1ccc(OC(F)(F)F)cc1 answerlabel=no
molecule="COc1cc2nc(N(C)CCCNC(=O)C3CCCO3)nc(N)c2cc1OC (stereo not drawn)" answerlabel=no
molecule=O=c1cccc2ccc(O)c(O)c2c1O answerlabel=yes
molecule="O=C1CCC(N2C(=O)c3ccccc3C2=O)C(=O)N1 (stereo not drawn)" answerlabel=no
molecule=NCCCS(=O)(=O)O answerlabel=no
molecule="OCC(O)CN1CCN(c2ccccc2)CC1 (stereo not drawn)" answerlabel=no
molecule=Nc1nc(=S)c2[nH]cnc2[nH]1 answerlabel=no
molecule=CN1CC(=O)N=C1N answerlabel=no
molecule=Cc1ccc(S(=O)(=O)NC(=O)NN2CCCCCC2)cc1 answerlabel=no
molecule=O=C(c1ccc(OCCN2CCCCC2)cc1)c1c(-c2ccc(O)cc2)sc2cc(O)ccc12 answerlabel=no
molecule="N=c1ccn2c(n1)OC1C(O)C(CO)OC12 (stereo not drawn)" answerlabel=no
molecule=Cc1[nH]c2ccccc2c1CN(C)C answerlabel=no
molecule="C/C=C(\\C)C(=O)O[C@H]1C[C@@H](OC(C)=O)[C@@]2(C(=O)OC)CO[C@@H]3C2[C@]12CO[C@](O)(C(=O)OC)[C@H]2[C@](C)(C12O[C@@]1(C)[C@H]1C[C@@H]2OC2OC=C[C@@]21O)[C@@H]3O (stereo partly drawn)" answerlabel=no
molecule=CCCCCCCCCCCCCc1ccco1 answerlabel=no
molecule="CC(C)NCC(O)COc1cccc2[nH]ccc12 (stereo not drawn)" answerlabel=no
molecule="CN1C2CCC1CC(OC(c1ccccc1)c1ccccc1)C2 (stereo not drawn)" answerlabel=no
molecule=CC1(C)S[C@@H]2[C@H](NC(=O)[C@H](N)c3ccccc3)C(=O)N2[C@H]1C(=O)O answerlabel=no
molecule=CC[C@@]1(O)C[C@H](O)c2c(cc3c(c2O)C(=O)c2c(O)ccc(O)c2C3=O)[C@H]1C(=O)OC answerlabel=yes
molecule=CC[C@@]1(O)C[C@H](O[C@H]2C[C@H](N(C)C)[C@H](O)[C@H](C)O2)c2c(cc3c(c2O)C(=O)c2c(O)ccc(O)c2C3=O)[C@H]1C(=O)OC answerlabel=yes
molecule=O=C1C(Cl)=C(Cl)C(=O)C(Cl)=C1Cl answerlabel=no
molecule=COC(=O)/C=C/C(C)=C/C=C/C(C)=C/C=C/C=C(C)/C=C/C=C(C)/C=C/C(=O)O answerlabel=no
molecule=COc1ccc(C(=O)CC(=O)O)c2c1C=CC(C)(C)O2 answerlabel=no
molecule=NCCS(=O)(=O)O answerlabel=no

---

procedureText: chemical genetic growth profiling, strain panel (AID 1159580);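 note: tested at 20 µM; growth read once vehicle control cultures reached saturation at 30 °C; 1 = growth at the plate median or of vehicle wells; lower values mean less growth of the strain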
measurementParameters: S. cerevisiae deletion strains, growth OD, locus YLR258W, strain gsy2, hits give low values
The campaign covered roughly 5,500 compounds. About 2,000 (36%) were called active. Not shown: some 18% with an inconclusive outcome. The list shows a part of the results.
Item-by-item account of normalized growth
attributeMeasured: normalized growth

molecule="COc1ccc(C(CN(C)C)C2(O)CCCCC2)cc1 (centres undefined)" reportedresult=0.978
molecule=Cc1ncc(CNC(=O)N(CCCl)N=O)c(N)n1 reportedresult=1
molecule=Cc1ccc(S(=O)(=O)NC(=O)NN2CCCCCC2)cc1 reportedresult=0.98
molecule=CCOC(=O)n1ccn(C)c1=S reportedresult=1
molecule=CCN(CC)C(=O)N1CCN(C)CC1 reportedresult=0.981
molecule="CC(C)NCC(O)COc1cccc2[nH]ccc12 (centres undefined)" reportedresult=0.981
molecule="Cn1c(=O)c2c(ncn2CC(O)CO)n(C)c1=O (centres undefined)" reportedresult=0.985
molecule=CNC(=O)O/N=C(\C)SC reportedresult=0.994
molecule=C#CCN(C)Cc1ccccc1 reportedresult=1
molecule="N=c1ccn2c(n1)OC1C(O)C(CO)OC12 (centres undefined)" reportedresult=1.01
molecule=COc1ccc(C(=O)O)cc1OC reportedresult=1.01
molecule=C=CCc1ccc(O)c(OC)c1 reportedresult=1.01
molecule=CC1(C)S[C@@H]2[C@H](NC(=O)[C@H](N)c3ccccc3)C(=O)N2[C@H]1C(=O)O reportedresult=0.981
molecule="OCC(O)CN1CCN(c2ccccc2)CC1 (centres undefined)" reportedresult=0.992
